Species on record: Rattus norvegicus
Experiment: Open TG-GATES - Regimen: Daily Repeat
Type: toxicity, organism-based, Sprague-Dawley
Set-up: regimen Daily Repeat, gender Male, age 6 weeks
Conditions: in vivo, po, 0 mg/kg, […], tissue Blood, route gavage, dose level Control, time 14 day
Plat listing for selected compounds.
endpoint_label: Plat (x10_4/uL)

>>> number("CC1=C(CC(=O)O)c2cc(F)ccc2/C1=C\\c1ccc([S+](C)[O-])cc1 (stereo not given)")
124.3
>>> number("O=NN(CCCl)C(=O)NC1CCCCC1 [LOMUSTINE]")
119.2
>>> number("OCCOCCN1CCN(C(c2ccccc2)c2ccc(Cl)cc2)CC1 (stereo not given) [HYDROXYZINE]")
116.6
>>> number("CC[C@H]1[C@@H]2C[C@H]3[C@@H]4N(C)c5ccccc5[C@]45C[C@@H]([C@@H]2[C@H]5O)N3[C@@H]1O [AJMALINE]")
121.9
>>> number("ClC(Cl)(Cl)Cl [CARBON TETRACHLORIDE]")
124

---

Readings of IP for the listed molecules
Species: Rattus norvegicus
Test: Open TG-GATES - Regimen: Single
Format: toxicity, organism-based, Sprague-Dawley
Set-up: regimen Single, gender Male, age 6 weeks
Conditions: in vivo, po, 0 mg/kg, 6 h, tissue Plasma, route gavage, dose level Control
endpoint_label: IP (mg/dL)

>>> number("OCCOCCN1CCN(C(c2ccccc2)c2ccc(Cl)cc2)CC1 (stereo not given) [HYDROXYZINE]")
9.9
>>> number("CC[C@H]1[C@@H]2C[C@H]3[C@@H]4N(C)c5ccccc5[C@]45C[C@@H]([C@@H]2[C@H]5O)N3[C@@H]1O")
10
>>> number("CCc1oc2ccccc2c1C(=O)c1cc(Br)c(O)c(Br)c1")
9.7
>>> number("ClC(Cl)(Cl)Cl [CARBON TETRACHLORIDE]")
9.8
>>> number("CN(C)CCC=C1c2ccccc2COc2ccccc21 [DOXEPIN]")
8.9

---

Organism: Rattus norvegicus
Experiment: Open TG-GATES - Regimen: Daily Repeat
Type: toxicity, organism-based, Sprague-Dawley
Design: regimen Daily Repeat, gender Male, age 6 weeks
Details: in vivo, po, 0 mg/kg, […], tissue Blood, route gavage, dose level Control, time 7 day
Reported APTT values follow for various molecules
endpoint_label: APTT (s)

>>> number("O=NN(CCCl)C(=O)NC1CCCCC1")
17.7
>>> number("CN(C)C(=N)N=C(N)N")
16.6
>>> number("CC1=C(CC(=O)O)c2cc(F)ccc2/C1=C\\c1ccc([S+](C)[O-])cc1 (stereo unspecified)")
16.4
>>> number("CC(C)N(CCC(C(N)=O)(c1ccccc1)c1ccccn1)C(C)C (stereo unspecified) [DISOPYRAMIDE]")
21.6
>>> number("CC[C@H]1[C@@H]2C[C@H]3[C@@H]4N(C)c5ccccc5[C@]45C[C@@H]([C@@H]2[C@H]5O)N3[C@@H]1O")
16.1
>>> number("CCc1oc2ccccc2c1C(=O)c1cc(Br)c(O)c(Br)c1")
16.8
>>> number("CCCCc1oc2ccccc2c1C(=O)c1cc(I)c(OCCN(CC)CC)c(I)c1")
19.5
>>> number("CN(C)CCC=C1c2ccccc2COc2ccccc21 [DOXEPIN]")
15.9
>>> number("ClC(Cl)(Cl)Cl [CARBON TETRACHLORIDE]")
18.3
>>> number("OCCOCCN1CCN(C(c2ccccc2)c2ccc(Cl)cc2)CC1 (stereo unspecified) [HYDROXYZINE]")
16.8
>>> number("CCC1(c2ccccc2)C(=O)NC(=O)NC1=O")
15.9

---

Listed molecules paired with reported KIDNEY_TOTAL
Species on record: Rattus norvegicus
Experiment: Open TG-GATES - Regimen: Daily Repeat
Format: toxicity, organism-based, Sprague-Dawley
Parameters: regimen Daily Repeat, gender Male, age 6 weeks
Conditions: in vivo, po, 0 mg/kg, […], tissue Kidney, route gavage, dose level Control, time 14 day
endpoint_label: KIDNEY_TOTAL (g)

>>> number("CCC1(c2ccccc2)C(=O)NC(=O)NC1=O [PHENOBARBITAL]")
2.2
>>> number("CN(C)CCC=C1c2ccccc2COc2ccccc21 [DOXEPIN]")
2.4
>>> number("CC1=C(CC(=O)O)c2cc(F)ccc2/C1=C\\c1ccc([S+](C)[O-])cc1 (stereo unspecified)")
2.5
>>> number("O=NN(CCCl)C(=O)NC1CCCCC1 [LOMUSTINE]")
2.3
>>> number("CC[C@H]1[C@@H]2C[C@H]3[C@@H]4N(C)c5ccccc5[C@]45C[C@@H]([C@@H]2[C@H]5O)N3[C@@H]1O [AJMALINE]")
2.5
>>> number("ClC(Cl)(Cl)Cl [CARBON TETRACHLORIDE]")
2.3
>>> number("OCCOCCN1CCN(C(c2ccccc2)c2ccc(Cl)cc2)CC1 (stereo unspecified) [HYDROXYZINE]")
2.7
>>> number("CCc1oc2ccccc2c1C(=O)c1cc(Br)c(O)c(Br)c1 [BENZBROMARONE]")
2.4
>>> number("CN(C)C(=N)N=C(N)N [METFORMIN]")
2.4
>>> number("CCCCc1oc2ccccc2c1C(=O)c1cc(I)c(OCCN(CC)CC)c(I)c1 [AMIODARONE]")
2.5
>>> number("CC(C)N(CCC(C(N)=O)(c1ccccc1)c1ccccn1)C(C)C (stereo unspecified) [DISOPYRAMIDE]")
2.5

---

Species: Rattus norvegicus
Assay: Open TG-GATES - Regimen: Daily Repeat
Assay type: toxicity, organism-based, Sprague-Dawley
Set-up: regimen Daily Repeat, gender Male, age 6 weeks
Conditions: in vivo, po, 0 mg/kg, […], tissue Plasma, route gavage, dose level Control, time 14 day
endpoint_label: ALP (IU/L)

>>> number("CC[C@H]1[C@@H]2C[C@H]3[C@@H]4N(C)c5ccccc5[C@]45C[C@@H]([C@@H]2[C@H]5O)N3[C@@H]1O [AJMALINE]")
756.6
>>> number("OCCOCCN1CCN(C(c2ccccc2)c2ccc(Cl)cc2)CC1 (stereo not given) [HYDROXYZINE]")
1450
>>> number("CN(C)C(=N)N=C(N)N [METFORMIN]")
1342.2
>>> number("CC1=C(CC(=O)O)c2cc(F)ccc2/C1=C\\c1ccc([S+](C)[O-])cc1 (stereo not given)")
1218
>>> number("O=NN(CCCl)C(=O)NC1CCCCC1 [LOMUSTINE]")
859
>>> number("ClC(Cl)(Cl)Cl [CARBON TETRACHLORIDE]")
813
>>> number("CN(C)CCC=C1c2ccccc2COc2ccccc21 [DOXEPIN]")
1467
>>> number("CCc1oc2ccccc2c1C(=O)c1cc(Br)c(O)c(Br)c1 [BENZBROMARONE]")
712.8
>>> number("CCCCc1oc2ccccc2c1C(=O)c1cc(I)c(OCCN(CC)CC)c(I)c1 [AMIODARONE]")
896.2
>>> number("CCC1(c2ccccc2)C(=O)NC(=O)NC1=O [PHENOBARBITAL]")
764.6

---

Organism: Rattus norvegicus
Test: Open TG-GATES - Regimen: Daily Repeat
Format: toxicity, organism-based, Sprague-Dawley
Set-up: regimen Daily Repeat, gender Male, age 6 weeks
Details: in vivo, po, 0 mg/kg, […], tissue Plasma, route gavage, dose level Control, time 28 day
Recorded K by entry
endpoint_label: K (meq/L)

>>> number("CC1=C(CC(=O)O)c2cc(F)ccc2/C1=C\\c1ccc([S+](C)[O-])cc1 (stereo not given)")
3.6
>>> number("CN(C)C(=N)N=C(N)N [METFORMIN]")
3.9
>>> number("CCc1oc2ccccc2c1C(=O)c1cc(Br)c(O)c(Br)c1 [BENZBROMARONE]")
4.5
>>> number("ClC(Cl)(Cl)Cl [CARBON TETRACHLORIDE]")
3.9
>>> number("CCCCc1oc2ccccc2c1C(=O)c1cc(I)c(OCCN(CC)CC)c(I)c1 [AMIODARONE]")
3.7
>>> number("OCCOCCN1CCN(C(c2ccccc2)c2ccc(Cl)cc2)CC1 (stereo not given) [HYDROXYZINE]")
4.1
>>> number("O=NN(CCCl)C(=O)NC1CCCCC1 [LOMUSTINE]")
4.6
>>> number("CN(C)CCC=C1c2ccccc2COc2ccccc21 [DOXEPIN]")
3.9
>>> number("CCC1(c2ccccc2)C(=O)NC(=O)NC1=O [PHENOBARBITAL]")
4.5
>>> number("CC[C@H]1[C@@H]2C[C@H]3[C@@H]4N(C)c5ccccc5[C@]45C[C@@H]([C@@H]2[C@H]5O)N3[C@@H]1O [AJMALINE]")
4.7

---

Species: Rattus norvegicus
Experiment: Open TG-GATES - Regimen: Daily Repeat
Type: toxicity, organism-based, Sprague-Dawley
Design: regimen Daily Repeat, gender Male, age 6 weeks
Details: in vivo, po, 0 mg/kg, […], tissue Plasma, route gavage, dose level Control, time 14 day
endpoint_label: GLC (mg/dL)

>>> number("CN(C)CCC=C1c2ccccc2COc2ccccc21 [DOXEPIN]")
191.6
>>> number("CCc1oc2ccccc2c1C(=O)c1cc(Br)c(O)c(Br)c1 [BENZBROMARONE]")
187.6
>>> number("CN(C)C(=N)N=C(N)N [METFORMIN]")
188.2
>>> number("CC1=C(CC(=O)O)c2cc(F)ccc2/C1=C\\c1ccc([S+](C)[O-])cc1 (stereo not given)")
180
>>> number("CCC1(c2ccccc2)C(=O)NC(=O)NC1=O [PHENOBARBITAL]")
207.8
